tested on: Monocotyledonous and dicotyledonous test plants; experiment: Post-emergence herbicidal action, greenhouse pot test, sprayed at the 2- to 3-leaf stage, 9-level rating after 2 to 3 weeks; format: in vivo; conditions: Echino., 250 g/ha, rated after 2 to 3 weeks, 9-level scale
experimental-endpoint: Post-emergence action rating, Echino.
Please give the numeric answer without any surrounding text.

Consider the reported Post-emergence action rating, Echino. for these compounds:
{"compound": "N#CCCOCc1nc(C(F)(F)F)ccc1C(=O)C1=C(O)C2CCC(C2)C1=O (centres unmarked)", "measured-result": 3}
{"compound": "O=C(C1=C(O)C2CCC(C2)C1=O)c1ccc(C(F)(F)F)nc1COCCOCC(F)(F)F (centres unmarked)", "measured-result": 2}
{"compound": "O=C(C1=C(O)C2CCC(C2)C1=O)c1ccc(C(F)(F)F)nc1COCC1CO1 (centres unmarked)", "measured-result": 2}
{"compound": "COCCOCc1nc(C(F)(F)F)ccc1C(=O)c1cnn(C)c1OS(=O)(=O)c1ccc(C)cc1", "measured-result": 3}
{"compound": "CCN(CC)CC.O=C(C1=C(O)C2CCC(C2)C1=O)c1ccc(C(F)(F)F)nc1COC1CCCO1 (centres unmarked) [A837-B52 (Et3NH+)]", "measured-result": 2}
{"compound": "COCCOCc1nc(C(F)(F)F)ccc1C(=O)C1=C(O)CCCC1=O", "measured-result": 2}
{"compound": "COc1ccccc1OCc1nc(C(F)(F)F)ccc1C(=O)C1=C(O)C2CCC(C2)C1=O (centres unmarked)", "measured-result": 2}
{"compound": "COCOCc1nc(C(F)(F)F)ccc1C(=O)C1=C(O)C2CCC(C2)C1=O (centres unmarked)", "measured-result": 1}
{"compound": "CS(=O)(=O)OCCOCc1nc(C(F)(F)F)ccc1C(=O)C1=C(O)C2CCC(C2)C1=O (centres unmarked)", "measured-result": 3}
{"compound": "O=C(OCc1nc(C(F)(F)F)ccc1C(=O)C1=C(O)C2CCC(C2)C1=O)c1ccccc1 (centres unmarked)", "measured-result": 4}

Reading of Post-emergence action rating, Echino. for "CC#CCOCc1nc(C(F)(F)F)ccc1C(=O)c1cnn(C)c1O" with Monocotyledonous and dicotyledonous test plants: 4

Form field, Post-emergence action rating, Echino. with Monocotyledonous and dicotyledonous test plants, item "CCOCc1nc(C(F)(F)F)ccc1C(=O)c1cnn(C)c1O" : 2

Recorded Post-emergence action rating, Echino. for CC(=O)OCc1nc(C(F)(F)F)ccc1C(=O)C1=C([O-])C2CCC(C2)C1=O.[K+] (centres unmarked) on Monocotyledonous and dicotyledonous test plants was 4

I looked up CCOCCOCc1nc(C(F)(F)F)ccc1C(=O)C1=C(O)C2CCC(C2)C1=O (centres unmarked) and its Post-emergence action rating, Echino. for Monocotyledonous and dicotyledonous test plants was 2

GET /values?item= CC#CCOCc1nc(C(F)(F)F)ccc1C(=O)C1=C(O)C2CCC(C2)C1=O (centres unmarked) &system= Monocotyledonous and dicotyledonous test plants returns Post-emergence action rating, Echino.: 2

Hey, Monocotyledonous and dicotyledonous test plants data for CS(=O)(=O)CCOCc1nc(C(F)(F)F)ccc1C(=O)C1=C(O)C2CCC(C2)C1=O (centres unmarked) : Post-emergence action rating, Echino. came out at 2

Value sought: Post-emergence action rating, Echino., system Monocotyledonous and dicotyledonous test plants, item "COCCOCc1nc(C(F)(F)F)ccc1C(=O)C1=C(O)C(C)(C)C(=O)C(C)(C)C1=O" . Result: 3
